- measuredOn: mu opiate receptor (MOR) (Rattus norvegicus, UniProt P33535)
- Construct: from tissue; host or cells: striatal tissue (membrane preparation)
- Sequence (P33535 whole entry): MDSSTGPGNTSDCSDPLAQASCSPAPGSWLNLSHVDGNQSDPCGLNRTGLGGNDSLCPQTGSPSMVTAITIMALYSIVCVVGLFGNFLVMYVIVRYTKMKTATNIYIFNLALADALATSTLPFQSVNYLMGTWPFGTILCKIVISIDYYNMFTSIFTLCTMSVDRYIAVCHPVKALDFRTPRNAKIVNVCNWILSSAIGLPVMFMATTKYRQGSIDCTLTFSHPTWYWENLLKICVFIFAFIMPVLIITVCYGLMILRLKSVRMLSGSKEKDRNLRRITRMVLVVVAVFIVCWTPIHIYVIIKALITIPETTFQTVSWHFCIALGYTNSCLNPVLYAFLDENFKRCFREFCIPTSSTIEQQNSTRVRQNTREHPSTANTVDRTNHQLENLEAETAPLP
- testDetails: [35S]GTPγS binding assay using striatal membranes (MOR agonist activity)
- Assay type: biochemical
- Parameters: reference not given here
- experimentalSetup: 0.1 μM compound, striatal membranes
Listing of recorded MOR agonist activity, [35S]GTPγS binding to Gαo, 0.1 μM by entry.
The reply should be a number in %, with the unit left off.

Example results:
COc1ccccc1CCC(=O)CC1c2c(cc3c(c2OC)OCO3)CC[N+]1(C)C (stereo not drawn) [B0045] | 129.3
COc1c2c(cc3c1C(CC(=O)Cc1ccccc1C)N(C)CC3)OCO2 (stereo not drawn) [B0053] | 160.2
COc1c2c(cc3c1C(CC(=O)c1cccc(C(F)(F)F)c1)[N+](C)(C)CC3)OCO2 (stereo not drawn) [B0006] | 77.0
COc1c2c(cc3c1C(CC(=O)c1ccc(C#N)cc1)[N+](C)(C)CC3)OCO2 (stereo not drawn) [B0001] | 128.2
COc1c2c(cc3c1C(CC(=O)Cc1ccccc1Cl)[N+](C)(C)CC3)OCO2.[I-] (stereo not drawn) [B0039] | 171.8

Req: What does the record list as MOR agonist activity, [35S]GTPγS binding to Gαo, 0.1 μM for COc1ccc(CCC(O)CC2c3c(cc4c(c3OC)OCO4)CCN2C)cc1 (stereo not drawn) [B0048] ?
Resp: 185.1

Req: Can you look up the measured MOR agonist activity, [35S]GTPγS binding to Gαo, 0.1 μM of COc1c2c(cc3c1C(CC(=O)c1ccc(O)c(C)c1)[N+](C)(C)CC3)OCO2 (stereo not drawn) [B0002] for me?
Resp: 165.7

Req: Name the reported MOR agonist activity, [35S]GTPγS binding to Gαo, 0.1 μM value associated with the compound COc1c2c(cc3c1C(CC(=O)Cc1ccccc1C)[N+](C)(C)CC3)OCO2 (stereo not drawn) [B0031]
Resp: 210.8

Req: Field request: MOR agonist activity, [35S]GTPγS binding to Gαo, 0.1 μM | item: COc1cccc(OC)c1CC(=O)CC1c2c(cc3c(c2OC)OCO3)CC[N+]1(C)C.[I-] (stereo not drawn) [B0036]
Resp: 61.4

Req: Return reported MOR agonist activity, [35S]GTPγS binding to Gαo, 0.1 μM; argument: CCOc1ccc(C(=O)CC2c3c(cc4c(c3OC)OCO4)CC[N+]2(C)C)cc1F (stereo not drawn) [B0020]
Resp: 51.6

Req: Need MOR agonist activity, [35S]GTPγS binding to Gαo, 0.1 μM of COc1cc(F)ccc1C(=O)CC1c2c(cc3c(c2OC)OCO3)CC[N+]1(C)C (stereo not drawn) [B0007] , thanks.
Resp: 168.3

Req: I would be grateful if you could share the reported MOR agonist activity, [35S]GTPγS binding to Gαo, 0.1 μM for COc1c2c(cc3c1C(CC(O)Cc1ccccc1C)N(C)CC3)OCO2 (stereo not drawn) [B0054] .
Resp: 157.8

Req: Reported MOR agonist activity, [35S]GTPγS binding to Gαo, 0.1 μM for COc1ccc(CCC(=O)CC2c3c(cc4c(c3OC)OCO4)CC[N+]2(C)C)c(OC)c1 (stereo not drawn) [B0043] : what is it?
Resp: 74.8

Req: Recorded MOR agonist activity, [35S]GTPγS binding to Gαo, 0.1 μM of COc1c2c(cc3c1C(CC(=O)c1ccc(N4CCOCC4)cc1)[N+](C)(C)CC3)OCO2 (stereo not drawn) [B0004] , please.
Resp: 170.3

Req: Fill in: MOR agonist activity, [35S]GTPγS binding to Gαo, 0.1 μM of COc1c2c(cc3c1C(CC(=O)CCc1ccc(Cl)cc1)[N+](C)(C)CC3)OCO2 (stereo not drawn) [B0017] is ___
Resp: 99.6

Req: For COc1ccc(C(=O)CC2c3c(cc4c(c3OC)OCO4)CC[N+]2(C)C)cc1OC.[I-] (stereo not drawn) [B0026] , what is its reported MOR agonist activity, [35S]GTPγS binding to Gαo, 0.1 μM?
Resp: 152.0

Req: Which MOR agonist activity, [35S]GTPγS binding to Gαo, 0.1 μM is reported for this compound? COc1ccc(CCC(=O)CC2c3c(cc4c(c3OC)OCO4)CCN2C)cc1 (stereo not drawn) [B0047]
Resp: 187.8

Req: If you can, please state the reported MOR agonist activity, [35S]GTPγS binding to Gαo, 0.1 μM value of COc1ccc(C(=O)CC2c3c(cc4c(c3OC)OCO4)CC[N+]2(C)C)c(F)c1.[I-] (stereo not drawn) [B0027] .
Resp: 140.9
